reported property: melting point

>>> print(df.to_string())
                                   compound  value_measured
0  C[Si](C)(C)C#Cc1ccc(C2=CC(c3ccc(C#C[Si](C)(C)C)cc3)N(c3ccccc3)N2)cc1 (stereo not drawn)   108 to 110 °C
1  CC(C(=O)O)C1CCCc2c1n(Cc1ccc(Cl)cc1)c1ccc(F)cc21 (stereo not drawn)   203 to 205 °C
2  Cc1cc(OCc2ccc(-c3ccc(F)c(C(F)(F)F)c3)nc2C)ccc1OC(C)(C)C(=O)O   141 to 143 °C

###

Collected melting point values appear next to each entry.
reported property: melting point

>>> df
                                   compound  reported_property  value_measured
0  CCCC(C)(O)C(=O)Nc1ccnc(Br)c1 (configuration not stated)      melting point          102 °C
1  COc1cc(Nc2nccc(-c3ccc(N4CCCC(CO)C4)nc3)n2)cc(OC)c1OC (configuration not stated)      melting point   183 to 184 °C
2                 COC(=O)Nc1ccc(C(=O)OC)nc1      melting point   211 to 213 °C
3  Cc1nc2ccccn2c(=O)c1CCN1CCC(Nc2nc3cncnc3n2Cc2cnccn2)CC1      melting point          180 °C
4  NC(=NO)c1cccc(-c2nc3sccn3c2-c2ccnc(NC3CCCN(S(=O)(=O)c4ccc(Cl)cc4)C3)n2)c1 (configuration not stated)      melting point   272 to 273 °C
5  CCCCc1nc(=O)c2cc(C(O)c3ccco3)ccc2[nH]1 (configuration not stated)      melting point   183 to 185 °C
6          Cn1cnnc1NCCCOc1cccc(CN2CCCCC2)c1      melting point   118 to 119 °C
